Where do the numbers come from? From patent US6313309A.

The reader will find reported Ki values listed item by item below.
Biological target: Alpha-2D Adrenergic Receptor (Rattus norvegicus, UniProt P22909)
Construct: aliquots of the synaptic membrane fraction; from tissue; host or cells: rat cerebral cortex, synaptic membrane fraction (male Wistar rats)
Sequence (P22909 1-465): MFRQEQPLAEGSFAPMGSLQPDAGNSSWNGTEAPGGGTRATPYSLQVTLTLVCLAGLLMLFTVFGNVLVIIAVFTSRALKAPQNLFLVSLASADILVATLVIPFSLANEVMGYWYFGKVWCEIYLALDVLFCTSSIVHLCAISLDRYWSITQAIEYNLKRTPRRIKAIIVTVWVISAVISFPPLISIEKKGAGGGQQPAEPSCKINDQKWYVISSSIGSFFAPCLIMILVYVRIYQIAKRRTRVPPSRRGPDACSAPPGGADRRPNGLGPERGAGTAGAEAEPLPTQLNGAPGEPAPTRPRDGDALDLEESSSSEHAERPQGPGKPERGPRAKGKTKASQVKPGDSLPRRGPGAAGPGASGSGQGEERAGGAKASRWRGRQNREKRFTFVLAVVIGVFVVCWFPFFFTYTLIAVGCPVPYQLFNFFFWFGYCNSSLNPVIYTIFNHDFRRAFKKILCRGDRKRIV
Experiment: Alpha-2D Adrenergic Receptor Binding Assay (3H-para-aminoclonidine, rat cortex membranes)
Settings: rat cortex synaptic membranes, 25° C., 20 min, read-out: α-2D Binding Ki
Please reply with the bare figure in nM and do not write the unit itself.

Example compounds with recorded Ki:
# Compound, Unit Symbol, Ki
rows = [
    ("Cc1sc(C)c2c1CCCC2c1c[nH]cn1.O=C(O)/C=C\\C(=O)O (stereo not drawn)", "nM", 2.9),
    ("c1nc(C2CCCc3ccsc32)c[nH]1 (stereo not drawn)", "nM", 0.35),
    ("C1=C(c2c[nH]cn2)c2sccc2CC1", "nM", 3),
    ("c1nc(C2CCCc3sccc32)c[nH]1 (stereo not drawn)", "nM", 0.56),
    ("c1cc(-c2c[nH]cn2)c2ccsc2c1", "nM", 2.6),
]

Could you now look at the following compound, please?
// map `C1=C(c2c[nH]cn2)c2ccsc2CC1` to recorded Ki (system: Alpha-2D Adrenergic Receptor (Rattus norvegicus, UniProt P22909))
1.5
